Documented growth across a set of compounds
Tested on: HL-60(TB) leukemia
method notes: NCI-60 one-dose screen, 48 h (100 = growth as untreated, 0 = no growth, -100 = all killed)
run conditions: 10 µM unless noted
The panel holds about 83,000 compounds, 20% with a hit somewhere; the sample as a whole holds those more often.
The figure you give is taken to be in %; do not add the unit.

Recorded growth, per entry:
{"given smiles": "c1ccc2c(-c3cnn4cc(-c5ccc(N6CCNCC6)cc5)cnc34)ccnc2c1", "measured on": "HL-60(TB) leukemia", "measured parameter": "growth", "readout units": "%", "value": -55.7}
{"given smiles": "CC(=O)O[C@H]1[C@H](CC#CC#CC[C@@H]2C[C@]3(C)[C@H]4CC=C5[C@H]6[C@@H](C)[C@H](C)CC[C@]6(C(=O)NCCN(CCN)CCN)CC[C@@]5(C)[C@]4(C)CC[C@H]3C(C)(C)[C@H]2OC(C)=O)C[C@]2(C)[C@H]3CC=C4[C@H]5[C@@H](C)[C@H](C)CC[C@]5(C(=O)NCCN(CCN)CCN)CC[C@@]4(C)[C@]3(C)CC[C@H]2C1(C)C", "measured on": "HL-60(TB) leukemia", "measured parameter": "growth", "readout units": "%", "value": 34.2}
{"given smiles": "COc1cc(OC)c2cc(C(=O)c3ccc(C#N)cc3)c(=O)oc2c1", "measured on": "HL-60(TB) leukemia", "measured parameter": "growth", "readout units": "%", "value": 97.4}
{"given smiles": "Cc1ccc2nc(NC(=O)CSc3nc(Cl)c(C#N)c(-c4ccccc4)n3)sc2c1", "measured on": "HL-60(TB) leukemia", "measured parameter": "growth", "readout units": "%", "value": 94.9}
{"given smiles": "NCCCNc1nc2ccccc2c2c(=O)c3cccc(Cl)c3sc12", "measured on": "HL-60(TB) leukemia", "measured parameter": "growth", "readout units": "%", "value": -45}

Give the value of growth reported for the following: COc1ccc(Cn2nc(-c3cc(OC)c(OC)c(OC)c3)c3c2CCc2cnoc2-3)cc1OC 16.3

// Input: COc1cccc(/C=N\NC(=O)c2ccncc2)c1O . Output its growth only. 9.43

====

Let's look at some compounds and their measured growth.
System: SW-620 colon
method notes: NCI-60 one-dose screen, 48 h (100 = growth as untreated, 0 = no growth, -100 = all killed)
run conditions: 10 µM unless noted
About 83,000 compounds went through this panel and 20% of them were active in at least one assay; those are over-represented in the sample as a whole. Active and inactive are the calls of the source. How the source made its calls: active means growth percent below 10; inactive means the rest.

{"compound": "CNC(=O)Oc1cc(C(C)C)ccc1Sc1ccc(C(C)C)cc1OC(=O)NC", "growth": "43.6% (inactive)"}
{"compound": "CCOP(=O)(OCC)Oc1ccc(Sc2ccc(OP(=O)(OCC)OCC)cc2)cc1", "growth": "113% (inactive)"}
{"compound": "CC(=O)C1CCC2C3CC=C4CC(OC(=O)Cc5ccc(N(CCCl)CCCl)cc5)CCC4(C)C3CCC12C (stereo not given)", "growth": "101% (inactive)"}
{"compound": "O=C(CF)N(O)c1ccc(/C=C/c2ccccc2)cc1", "growth": "56.5% (inactive)"}
{"compound": "C[C@]12CCc3sc(-c4ccc(Cl)cc4)nc3C1=CC[C@@H]1[C@@H]2CC[C@]2(C)C(=O)CC[C@@H]12", "growth": "22.9% (inactive)"}

For CC1(C)N=C(N)N=C(N)N1c1ccc(OCCCCOc2ccc(S(=O)(=O)F)cc2)c(Cl)c1 , write its growth. 13% (inactive)

Note growth for the compound shown: COc1ccc(/C=C(/C(=O)N2CCCC2)c2cc(OC)c(OC)c(OC)c2)cc1N 25.6% (inactive)

====

System: HT29 colon
method notes: NCI-60 one-dose screen, 48 h
run conditions: 10 µM unless noted
The panel holds about 83,000 compounds, 20% with a hit somewhere; the sample as a whole holds those more often. Calls of active or inactive are those of the source. The calls were made as follows: active = growth percent below 10; inactive = the rest.
Outcome (select one): yes (1) for active, no (0) for inactive

Use these answered entries as a reference point.
{"compound": "COC(=O)C(=[N+]=[N-])C(=O)OC", "measured on": "HT29 colon", "category": "no (0)"}
{"compound": "O=C1NC(=O)C(=Cc2cn(Cc3ccccc3)c3ccccc23)C(=O)N1", "measured on": "HT29 colon", "category": "no (0)"}
{"compound": "CCCCCN(CCCCC)CC(O)c1ccc(C)c(Cl)c1 (configuration not stated)", "measured on": "HT29 colon", "category": "no (0)"}
{"compound": "S=P(N1CCCCCC1)(N1CC1)N1CC1", "measured on": "HT29 colon", "category": "no (0)"}
{"compound": "COc1ccc(C(c2ccc(OC)cc2)C(Cl)(Cl)Cl)cc1", "measured on": "HT29 colon", "category": "no (0)"}

Give the logged outcome of this assay for the following compound: O=[N+]([O-])c1ccc(F)c([N+](=O)[O-])c1F no (0)

What did this assay record as the result for O=C(O)CC(Br)C(=O)CBr (configuration not stated) ? no (0)

Any idea what this test logged for CC(/C=N/N=C(N)N)=N/N=C(N)N ? no (0)

Check the results log: what was the call for CC(=O)OC1CCC2(C)C(=CCC3C4CC(CN5CC5)C(=O)C4(C)CCC32)C1 (configuration not stated) ? no (0)

What was the test verdict on O=C(O)c1cccc(CCl)c1 ? no (0)

Please indicate how the test categorized COc1ccc(C(=O)c2ccc([As]=O)cc2)cc1 (configuration not stated) . yes (1)

For O=C(NCCNC(=O)c1ccc([As](O)O)cc1)c1ccc([As](O)O)cc1 , what call appears in the results of this test? no (0)

====

System: NCI/ADR-RES ovarian
method notes: NCI-60 one-dose screen, 48 h (100 = growth as untreated, 0 = no growth, -100 = all killed)
run conditions: 10 µM unless noted
This is part of a sample that, as a whole, favours compounds with a hit. Of some 83,000 tested, about 20% had one in any assay.
measured parameter: growth (%)
Dear colleague, please return just the value in %, with no unit written.

Reference set, count: 6
{"compound": "Cc1ccc2oc(=O)c3c(c2c1)OC(N)=C(C#N)C3c1ccco1 (stereo not given)", "growth [%]": 102}
{"compound": "CCCCNCCc1ccccn1", "growth [%]": 105}
{"compound": "O=C(CC1(O)C(=O)Nc2ccc(F)cc21)c1ccc(C(=O)NCC2CCC3(CC2)OOC2(CCCCC2)OO3)cc1 (stereo not given)", "growth [%]": 80}
{"compound": "[N-]=[N+]=NC(C(=O)O)c1ccccc1 (stereo not given)", "growth [%]": 107}
{"compound": "Nc1c(Br)cc2c3c(cccc13)-c1ccccc1-2", "growth [%]": 83.4}
{"compound": "CCOC(=O)/C=C(\\C)Nc1ccc(N/C(C)=C/C(=O)OCC)c2c1Oc1ccccc1O2", "growth [%]": 99.5}

Please report the measured growth for [Cl][Hg][n]1cnc2c(Cl)c(Cl)c(Cl)cc21 104

Kindly indicate its recorded growth. Item: CN1CCN(C(=O)COc2ccc(/C=C3\CC4C5CC=C6CC(Cl)CCC6(C)C5CCC4(C)C3=O)cc2)CC1 (stereo not given) 69.2

Look up and state reported growth for NC(Cc1ccc(O)cc1)C(=O)N/N=C/c1ccc(N(CCCl)CCCl)cc1 (stereo not given) 78.4

Check the records and state growth for COc1cc(C2=NN(c3ccccc3)C(c3sc(N(CCCl)CCCl)nc3Cl)C2)cc(OC)c1OC (stereo not given) 93.8

====

Entries annotated with measured growth
System: HL-60(TB) leukemia
method notes: NCI-60 one-dose screen, 48 h (100 = growth as untreated, 0 = no growth, -100 = all killed)
run conditions: 10 µM unless noted
The panel holds about 83,000 compounds, 20% with a hit somewhere; the sample as a whole holds those more often. Calls of active or inactive are those of the source. Rule for the calls: active = growth percent below 10; inactive = the rest.

Observe how each entry below is paired with its result.
{"molecule": "CC(=O)OC1Oc2cc(C)c(C)cc2-c2oc(=O)c(-c3ccc(F)cc3)cc21 (centres undefined)", "growth": "12.5% (inactive)"}
{"molecule": "COc1ccc(C(=O)Nc2cccc(-c3cc(=O)c4c(OC)c(OC)c(OC)cc4o3)c2)cc1", "growth": "44.8% (inactive)"}
{"molecule": "Nc1ncnc2[nH]c(=O)[nH]c12", "growth": "140% (inactive)"}

In one line, give reported growth of the entry COc1ccc(-c2nc(N/N=C/c3cccc(Br)c3)nc(N3CCOCC3)c2C#N)cc1 . 10.7% (inactive)

Identify the reported growth for the following entry. [Cl-].[Rh+3].c1ccc(-c2ccnc3c2ccc2c(-c4ccccc4)ccnc23)cc1.c1ccc(-c2ccnc3c2ccc2c(-c4ccccc4)ccnc23)cc1.c1ccc(-c2ccnc3c2ccc2c(-c4ccccc4)ccnc23)cc1 99.9% (inactive)

In one line, give reported growth of the entry COc1cc(-c2nn(-c3cccc(NC(=O)CCN4CCN(c5ccccc5)CC4)c3)cc2-c2ccncc2)ccc1Cl . 13% (inactive)

Name the recorded growth of the molecule listed here: C#CCOC(=O)C(N)CS (centres undefined) 120% (inactive)

Hello, please tell me recorded growth for this one: CCC/C=C(/C(C)=O)C(=O)OCC 93.2% (inactive)

Retrieve growth measured for CCOC(=O)C(c1ccccc1)N1C(=O)c2ccccc2C1=O (centres undefined) and print it. 115% (inactive)
